system-name: Recombinant JAK2 (Homo sapiens, UniProt O60674)
Construct: purchased Carna Biosciences
Sequence (O60674 whole entry): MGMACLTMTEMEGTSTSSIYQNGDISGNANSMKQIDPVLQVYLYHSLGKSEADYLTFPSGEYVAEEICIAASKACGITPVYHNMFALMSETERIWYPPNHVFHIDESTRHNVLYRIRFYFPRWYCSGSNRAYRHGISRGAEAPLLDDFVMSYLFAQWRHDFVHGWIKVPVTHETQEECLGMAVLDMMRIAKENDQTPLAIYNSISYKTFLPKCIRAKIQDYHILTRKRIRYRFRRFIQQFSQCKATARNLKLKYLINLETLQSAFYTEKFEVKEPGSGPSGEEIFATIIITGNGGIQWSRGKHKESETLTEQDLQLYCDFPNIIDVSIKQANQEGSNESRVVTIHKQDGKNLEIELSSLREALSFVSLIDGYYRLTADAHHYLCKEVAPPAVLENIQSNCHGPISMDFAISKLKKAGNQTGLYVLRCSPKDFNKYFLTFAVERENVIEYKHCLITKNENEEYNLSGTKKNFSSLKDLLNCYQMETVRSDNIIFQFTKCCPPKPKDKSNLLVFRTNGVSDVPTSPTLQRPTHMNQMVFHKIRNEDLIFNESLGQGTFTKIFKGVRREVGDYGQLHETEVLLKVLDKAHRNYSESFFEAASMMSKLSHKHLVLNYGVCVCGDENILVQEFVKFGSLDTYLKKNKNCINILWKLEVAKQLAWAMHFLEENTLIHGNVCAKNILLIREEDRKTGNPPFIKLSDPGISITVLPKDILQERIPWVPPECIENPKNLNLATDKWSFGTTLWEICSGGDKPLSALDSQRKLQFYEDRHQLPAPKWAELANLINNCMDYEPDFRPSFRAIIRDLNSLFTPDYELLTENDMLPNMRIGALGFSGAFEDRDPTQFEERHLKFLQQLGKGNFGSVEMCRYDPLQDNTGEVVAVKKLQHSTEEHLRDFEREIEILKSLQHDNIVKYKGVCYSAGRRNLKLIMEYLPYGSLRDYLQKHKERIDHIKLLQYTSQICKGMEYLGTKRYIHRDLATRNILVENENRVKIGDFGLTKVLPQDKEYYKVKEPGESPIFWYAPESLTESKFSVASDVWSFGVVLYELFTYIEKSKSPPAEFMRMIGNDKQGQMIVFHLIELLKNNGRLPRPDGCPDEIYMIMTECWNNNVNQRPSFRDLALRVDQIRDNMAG
assay-details: JAK biochemical assay (LANCE Ultra TR-FRET), JAK2
test-conditions: recombinant JAK2, TR-FRET; read-out: Biochemical Assay (μM) JAK2
Method: Recombinant JAK1, JAK2, JAK3 and TYK2 (Carna Biosciences) were used to develop biochemical assays in 50 mM HEPES pH 7.5, 1 mM EGTA, 10 mM MgCl2, 2 mM DTT and 0.01% Tween-20. […] The intensity of the light emission is proportional to the level of ULight substrate phosphorylation. Compounds which interfere with JAK enzyme activity show a lesser substrate phosphorylation and values are projected in terms of % inhibition in comparison to vehicle control.
attribute-measured: IC50

Look over these answered cases.
>>> reading("N#CC1CN(Cc2ccc(-n3cc(-c4ccnc5[nH]cnc45)cn3)nc2)C1 [Example 1087]")
"> 1 µM"
>>> reading("O=C(NCCC(c1ccc(-n2cc(-c3ccnc4[nH]cnc34)cn2)nc1)C(F)(F)F)C1CC1 (centres unmarked) [Example 1149]")
"> 0.1 µM"
>>> reading("CC(C)[C@H](C#N)NC(=O)n1cc(-c2ccnc3[nH]c(=O)[nH]c23)cn1 [Example 1049]")
"< 0.5 µM"
>>> reading("N#CC(c1ccc(-n2cc(-c3ccnc4[nH]cnc34)cn2)cc1)C1CC1 (centres unmarked) [Example 1100]")
"> 0.5 µM"
>>> reading("CCC(c1ccc(-n2cc(-c3ccnc4[nH]cnc34)cn2)nc1)C(F)(F)F (centres unmarked) [Example 1122]")
"> 0.5 µM"

Can you look up the measured IC50 of N#CCC(C1CCCC1)n1cc(-c2ccnc3[nH]c(-c4ccccc4)nc23)cn1 (centres unmarked) [Example 1180] for me?
< 1 µM

Can you look up the measured IC50 of Cn1c(=O)[nH]c2nccc(-c3cnn(C(=O)NCC(F)(F)F)c3)c21 [Example 1029] for me?
> 10 µM

* * *

# IC50 per entry
system-name: Recombinant JAK2 (Homo sapiens, UniProt O60674)
Construct: purchased Carna Biosciences
assay-details: JAK biochemical assay (LANCE Ultra TR-FRET), JAK2
test-conditions: recombinant JAK2, TR-FRET; read-out: Biochemical Assay (μM) JAK2
Where a name gives a salt, the structure may show the parent alone.

Look over these answered cases.
>>> reading("CN(C)C(c1ccc(-n2cc(-c3ccnc4[nH]cnc34)cn2)nc1)C(F)(F)F (centres unmarked)")
"> 0.1 µM"
>>> reading("CNCCC(c1ccc(-n2cc(-c3ccnc4[nH]cnc34)cn2)nc1)C(F)(F)F (centres unmarked) [Example 1198]")
"< 0.1 µM"
>>> reading("O=C(N1CCN(c2ccnc3[nH]c(=O)[nH]c23)CC1)N1CCS(=O)(=O)CC1")
"> 10 µM"
>>> reading("OC(c1ccc(-n2cc(-c3ccnc4[nH]cnc34)cn2)nc1)C1CC1 (centres unmarked)")
"> 0.1 µM"
>>> reading("OC(c1ccc(-n2cc(-c3ccnc4[nH]cnc34)cn2)nc1)C(F)(F)F (centres unmarked)")
"0.073 µM"
>>> reading("CC(C)NC(=O)CCC(O)(c1ccc(-n2cc(-c3ccnc4[nH]cnc34)cn2)nc1)C(F)(F)F (centres unmarked)")
"> 0.03 µM"
>>> reading("N#CCNC(=O)n1cc(-c2ccnc3[nH]c(=O)[nH]c23)cn1 [Example 1035, hydrochloride]")
"> 10 µM"

Can you look up the measured IC50 of CS(=O)(=O)NCc1ccc(-n2cc(-c3ccnc4[nH]cnc34)cn2)nc1 for me?
0.3 µM
